- Tested on: MCF7 breast
- test.name: NCI tumour cell line growth inhibition, 48 h
measured.parameter: TGI

Name the reported TGI value associated with the molecule `COC(=O)[C@]1(C)CC[C@]2(C)CC[C@]3(C)C(=CC(=O)[C@@H]4[C@@]5(C)CCC(=O)NC(C)(C)[C@@H]5CC[C@]43C)[C@@H]2C1`
43.5 µM

What value of TGI has been recorded for this entry: Nc1ncnc2c1ncn2C1OC(C(=O)OCCO)C(O)C1O (centres undefined)
> 100 µM

Look up TGI: `CN(C)c1ccc(/C=N/NC(=O)c2cnc3ccccc3c2)cc1`
> 100 µM

Request the reported TGI associated with `N#Cc1c(Nc2ccccc2)[n+]([O-])c2ccc(Cl)cc2[n+]1[O-]`
> 35.2 µM

* * *

- Tested on: OVCAR-8 ovarian
- test.name: NCI tumour cell line growth inhibition, 48 h
Where a SMILES comes first, the peptide text is derived from it. The star is where a group is joined. Fmoc = O=C(OCC1c2ccccc2-c2ccccc21)*; Boc = CC(C)(C)OC(=O)*
# TGI values compiled below

compound	TGI
C=C1C(OCCO)OC2O[C@]3(C)CCC4[C@H](C)CCC1C24OO3 (some centres undefined)	12.5 µM
CCc1ncc(C(C)(O)c2ccccc2)n1Cc1ccccc1 (centres undefined)	> 100 µM
CC(C)(C)OC(=O)NCCCCC(NC(=O)C(Cc1c[nH]c2ccccc12)NC(=O)OCC1c2ccccc2-c2ccccc21)C(=O)O (centres undefined) (Fmoc-Trp-Lys(Boc)-OH; configuration not given here)	> 100 µM
COc1ccc(CNC(=O)c2c(C)n([O-])c3cc(F)c(F)cc3[n+]2=O)cc1	15.9 µM
CCN(CC)c1ccc2cc(-c3csc(-c4ccc(N(C)C)cc4)n3)c(=O)oc2c1	> 100 µM

Field request: TGI | item: `N#CCCN(CCC#N)c1ccc(/C=C2\N=C(c3ccccc3)N(c3ccccc3)C2=O)cc1`
> 100 µM

Any idea what TGI was measured for `CC(=O)Nc1cc(CN2CCCCC2)c(O)c2ncccc12` ?
> 100 µM

# get_value(readout='TGI', item= `CC(=O)N1CCN(C=S)CC1` )
> 100 µM

Look at this compound and give its reported TGI. `Cc1ccc(C(=O)N/N=C(\N=Nc2ccccc2)c2ccc(N(CCC#N)CCC#N)cc2C)cc1`
> 100 µM

* * *

- Test system: NCI-H460 lung
- test.name: NCI tumour cell line growth inhibition, 48 h
measured.parameter: TGI

Consider the following illustrative entries.
>>> df
                                   compound  measured_parameter  meas_value
0  COC(=O)C(=O)C(C(=O)C(=O)Nc1nc(=S)[nH][nH]1)c1nc2ccc([N+](=O)[O-])cc2[nH]c1=O (stereo unspecified)                 TGI    > 100 µM
1  CCc1ncc(C(C)(O)c2ccccc2)n1Cc1ccccc1 (stereo unspecified)                 TGI    > 100 µM
2  COc1ccc(NC(C)=O)cc1N1C(=O)/C(=C\c2cccc(Oc3ccccc3)c2)SC1c1ccccc1 (stereo unspecified)                 TGI    > 100 µM

Fill in the blank: the reported TGI of `O=C(OCc1ccccc1)c1ccccc1-c1c2ccc(=O)cc-2oc2cc(OCc3ccccc3)ccc12` is ____.
35.8 µM

Which value of TGI has been reported for `O=[N+]([O-])c1ccc2nc(=S)[nH]n2c1` in the records?
> 100 µM

I am curious: what TGI value has been reported for COC(=O)C(C(=O)C(=O)Nc1ccc(N)cc1[N+](=O)[O-])c1nc2ccc(Cl)cc2[nH]c1=O (stereo unspecified) ?
> 100 µM

Tell me the measured TGI of `C(=NCCN=Cc1cccc2ccccc12)c1cccc2ccccc12` , please.
> 100 µM

Please look up its TGI: `O=c1[nH]c(Br)nc2c(N3CCCCC3)c[nH]c12`
> 100 µM

// TGI lookup, key: `CCOC(=O)c1c(CN2CCOCC2)n(Cc2ccccc2)c2c1cc(O)c1nc(C)c(C)nc12`
> 100 µM

Please look up its TGI: Cc1ccc(C(=O)C(C)N)cc1C (stereo unspecified)
> 100 µM

Reported TGI, compound `CC(=O)Nc1cc(CN2CCCCC2)c(O)c2ncccc12` : ____
36.9 µM

Quick one: TGI of C=C1CC(CC(=O)C(C)CC2CC(=C)C(=O)O2)OC1=O (stereo unspecified) ?
> 100 µM

Which TGI reading was recorded for the compound `Cc1ccc2c(c1)C/C(=C\c1ccccc1C(=O)O)C2=O` ?
> 100 µM

# input compound: `NCCNc1ncnc2ccc(Cl)cc12` ; wanted: its TGI
> 100 µM

* * *

- Test system: HS 578T breast
- test.name: NCI tumour cell line growth inhibition, 48 h; in the data active means GI50 below about 0.43 µM; inactive means the rest
Your reply should match one of these outcome classes. true = active, false = inactive

In [3]: df
Out[3]:
                                   molecule   target_entity  classification
0  O=C(Nc1ccc(N2CCNCC2)cn1)c1[nH]ncc1Nc1ncnc2sc3c(c12)CCC3  HS 578T breast           false
1  CN1CCN(Cc2ccc(NC(=O)c3cncc(C#Cc4ncc5ccccn45)c3)cc2C(F)(F)F)CC1  HS 578T breast           false
2        O=C1C=C(OCC=C(Cl)Cl)C(=O)c2ccccc21  HS 578T breast           false
3   COc1ccc2c(c1)NC(=O)CN2c1nc(C)nc2ccccc12  HS 578T breast            true
4  COc1ccc(-c2c(C#N)cnc(N)c2-c2nc3cc(C)c(C)cc3[nH]2)cc1  HS 578T breast           false
5  CNCC1CCn2c(c(C3=C(c4cn(C)c5ccccc45)C(=O)NC3=O)c3ccccc32)C1 (configuration not stated)  HS 578T breast           false
6  Nc1nc(N)c(-c2ccc(Cl)cc2)c(/C=C/c2ccc([N+](=O)[O-])cc2)n1  HS 578T breast           false
7  COc1ccc2c(c1)O/C(=C\c1ccc([N+](=O)[O-])s1)C2=O  HS 578T breast           false

Tell me the recorded outcome of this test for `Nc1cc(N)c2nc(-c3ccccc3)c(Oc3ccc(Cl)c(Cl)c3)nc2c1` .
false

Record request — test call for `COc1ccc(-c2cc3c(N)ncnc3o2)cc1`
false

Hi, do you know how `O=C(CN1CCN(c2ccccn2)CC1)Nc1ccc(Cl)cc1C(=O)c1ccccc1Cl` came out in this test?
false

// param item: `O=C(N/N=C/c1cccc(O)c1)c1ccc(C(F)(F)F)nc1Nc1cccc(C(F)(F)F)c1` ; yields the recorded call
false

* * *

- Test system: RPMI-8226 leukemia
- test.name: NCI tumour cell line growth inhibition, 48 h
Numbered stars: 1 amine (or outer) side, 2 acyl side, 3 side chain; on linkers, the order of the positions; unused ones are H or OH. Bridge positions count the residues as written; N and C are the ends. Square brackets hold non-standard residues; d marks the D form. Peptide text beside a SMILES is read from it. I, II: the chains in the order shown. Actinocin(1to9) = Cc1c2oc3c(C)ccc(C(=O)[*:2])c3nc-2c(C(=O)[*:1])c(N)c1=O; NMeV = CN[CH](C(=O)O)C(C)C; Sar = CNCC(=O)O
Class true (1): TGI at least 30 µM. Class false (0): TGI below 30 µM.

The following compounds have reported results that may help.
compound	classification
CCCNC(=O)c1cc(NC(=O)c2cc(NC(=O)CCS(=O)(=O)OC)cn2C)cn1C	true (1)
COc1cccc(-c2cc(=O)c3cc(N4CCCC4)ccc3[nH]2)c1	false (0)
COc1ccc(-c2cc(=O)c3cccnc3[nH]2)cc1	true (1)
CCC(C)C1NC(=O)C(NC(=O)c2c3nc4c(C(=O)NC5C(=O)NC(C(C)C)C(=O)N6CCCC6C(=O)N(C)CC(=O)N(C)C(C(C)C)C(=O)OC5C)ccc(C)c4oc-3c(C)c(=O)c2N)C(C)OC(=O)C(C(C)C)N(C)C(=O)CN(C)C(=O)C2CCCN2C1=O (stereo not drawn) (I: TIP[Sar][NMeV] / II: TVP[Sar][NMeV]; ester I:1-I:C, II:1-II:C; linker I:N-II:N via Actinocin(1to9); configuration not given here)	false (0)
C/C(CC(O)(C(F)(F)F)C(F)(F)F)=N/Nc1ccc([N+](=O)[O-])cc1[N+](=O)[O-]	false (0)

Consider the record given below.
Is reported TGI greater than or equal to 30 µM here: `O=C(CN1CCN(c2ccccn2)CC1)Nc1ccc(Cl)cc1C(=O)c1ccccc1Cl`
true (1)

* * *

- System: T-47D breast
- test.name: NCI tumour cell line growth inhibition, 48 h; in the data active means GI50 below about 0.43 µM; inactive means the rest
Where a SMILES comes first, the peptide text is derived from it. [ ]: non-standard residue; d: D form. The star is where a group is joined. ξ: configuration not given here. dIva = CC[C@@](C)(N)C(=O)O; Aib = CC(C)(N)C(=O)O; ξP = O=C(O)C1CCCN1; βAla = NCCC(=O)O; X5 = OCN*
Pick one: active, inactive

compound	classification
COc1ccc(OC)c(/C=C/C(=O)c2ccc3cc(OC)ccc3c2)c1	inactive
CC1CC2(C)CC(=O)C1C1C(=O)N(CCN3CCOCC3)C(=O)C12 (configuration not stated)	inactive
NC(N)=N/N=C/c1ccc(Br)cc1	inactive

Query: recorded result category for CC[C@@](C)(NC(=O)[C@H](C)NC(=O)CCNC(=O)C(C)(C)NC(=O)[C@H](C)NC(=O)[C@@H]1CCCN1C(=O)[C@@](C)(CC)NC(=O)[C@H](Cc1ccccc1)NC(=O)C1CCCN1C(=O)C(C)(C)NC(=O)C1CCCN1C(=O)C(C)(C)NC(C)=O)C(=O)NCCC(=O)N[C@@H](CC(C)C)C(=O)NC(C)(C)C(=O)NCCC(=O)N[C@@H](CC(C)C)C(=O)NC(C)(C)C(=O)NC(C)(C)C(=O)N[C@@H](CC(C)C)C(=O)NCCC(=O)NCO (some centres not stated) (Ac-[Aib][ξP][Aib][ξP]F[dIva]PA[Aib][βAla]A[dIva][βAla]L[Aib][βAla]L[Aib][Aib]L[βAla]-X5) in this test
active

How was `O=C1/C(=C/c2cccc(F)c2)CN(C(=O)C(Cl)Cl)C/C1=C\c1cccc(F)c1` classified in this test?
active

So what was the verdict on `CN1CCN(Cc2ccc(NC(=O)c3[nH]ncc3Nc3cc(OC4CCCC4)ncn3)cc2)CC1` in this test?
inactive

What did this assay record as the result for `COc1ccc(-c2c(C#N)cnc(N)c2-c2nc3cc(C)c(C)cc3[nH]2)cc1` ?
inactive

# lookup: test call for `COC(=O)[C@]1(C)CC[C@]2(C)CC[C@]3(C)C(=CC(=O)[C@@H]4[C@@]5(C)CCC(=O)NC(C)(C)[C@@H]5CC[C@]43C)[C@@H]2C1`
inactive
